# Test system: HCT116 p53+/+
# method.summary: Chemosensitivity, 96 h continuous exposure, MTT assay
# Format: cell-based, human
# condition.label: HCT116 p53+/+; read-out: Mean IC50 values
Provide the recorded pIC50 for the entries that follow.
Quick note: pIC50 values are minus log10 of concentrations in mol/L.

Complete the entry with pIC50 for O=S(=O)([O-])[O-].[Cu+2].[Cu+2].[Cu+2].c1ccc(-c2csc(NCCN(CCNc3nc(-c4ccccn4)cs3)CCNc3nc(-c4ccccn4)cs3)n2)nc1.c1ccc(-c2csc(NCCN(CCNc3nc(-c4ccccn4)cs3)CCNc3nc(-c4ccccn4)cs3)n2)nc1 [[L2Cu3(SO4)]4+] 6.18

# return recorded pIC50 for input O=P([O-])([O-])Oc1ccccc1.[Cu+2].[Cu+2].[Cu+2].c1ccc(-c2csc(NCCN(CCNc3nc(-c4ccccn4)cs3)CCNc3nc(-c4ccccn4)cs3)n2)nc1.c1ccc(-c2csc(NCCN(CCNc3nc(-c4ccccn4)cs3)CCNc3nc(-c4ccccn4)cs3)n2)nc1 [[L2Cu3(O3POPh)]4+] 6.78

Give the value of pIC50 reported for the following: [Zn+2].c1ccc(-c2csc(NCCN(CCNc3nc(-c4ccccn4)cs3)CCNc3nc(-c4ccccn4)cs3)n2)nc1 [[LZn]2+] 6.37

Find the measured pIC50 of [Cu+2].[Cu+2].[Cu+2].c1ccc(-c2csc(NCCN(CCNc3nc(-c4ccccn4)cs3)CCNc3nc(-c4ccccn4)cs3)n2)nc1.c1ccc(-c2csc(NCCN(CCNc3nc(-c4ccccn4)cs3)CCNc3nc(-c4ccccn4)cs3)n2)nc1 [[L2Cu3]6+] and report it. 6.30

Could you please provide reported pIC50 for [Cu+2].c1ccc(-c2csc(NCCN(CCNc3nc(-c4ccccn4)cs3)CCNc3nc(-c4ccccn4)cs3)n2)nc1 [[LCu]2+] ? Thanks! 6.35

Item CC(=O)[O-].CC(=O)[O-].CC(=O)[O-].CC(=O)[O-].CC(=O)[O-].CC(=O)[O-].[Zn+2].[Zn+2].[Zn+2].c1ccc(-c2csc(NCCN(CCNc3nc(-c4ccccn4)cs3)CCNc3nc(-c4ccccn4)cs3)n2)nc1.c1ccc(-c2csc(NCCN(CCNc3nc(-c4ccccn4)cs3)CCNc3nc(-c4ccccn4)cs3)n2)nc1 [[L2Zn3]6+] : provide pIC50 6.33

Look up pIC50 of [Mn+2].[Mn+2].[Mn+2].c1ccc(-c2csc(NCCN(CCNc3nc(-c4ccccn4)cs3)CCNc3nc(-c4ccccn4)cs3)n2)nc1.c1ccc(-c2csc(NCCN(CCNc3nc(-c4ccccn4)cs3)CCNc3nc(-c4ccccn4)cs3)n2)nc1 [[L2Mn3]6+] and report it. 5.88

Specify reported pIC50 for the compound shown: O=S(=O)(O)O.[Zn+2].[Zn+2].[Zn+2].c1ccc(-c2csc(NCCN(CCNc3nc(-c4ccccn4)cs3)CCNc3nc(-c4ccccn4)cs3)n2)nc1.c1ccc(-c2csc(NCCN(CCNc3nc(-c4ccccn4)cs3)CCNc3nc(-c4ccccn4)cs3)n2)nc1 [[L2Zn3(SO4)]4+] 7.18

FYI, the data here is from paper PMC8222254.
